B1: Pistol ribozyme (parent)
chain: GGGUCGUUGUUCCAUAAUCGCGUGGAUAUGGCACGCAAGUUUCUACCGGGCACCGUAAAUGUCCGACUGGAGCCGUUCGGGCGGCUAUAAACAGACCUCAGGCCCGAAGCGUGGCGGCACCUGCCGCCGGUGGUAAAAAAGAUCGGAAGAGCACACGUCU

Variants of: B1
Test: aptazyme ON/OFF ratio, guanine; higher = stronger switching; co-transcriptional cleavage with and without guanine
Quantity Name: aptazyme ON/OFF ratio

mutation_id="U7C U8G U11A C12A" quantity_name="aptazyme ON/OFF ratio" reported_result=1.14
mutation_id="U8A G9U C13G" quantity_name="aptazyme ON/OFF ratio" reported_result=1.09
mutation_id="U7A U11G C12G C13G" quantity_name="aptazyme ON/OFF ratio" reported_result=1.42
mutation_id="U10C U11G C12U C13G" quantity_name="aptazyme ON/OFF ratio" reported_result=1.33
mutation_id="U8A U10G C12U C13U" quantity_name="aptazyme ON/OFF ratio" reported_result=1.36
mutation_id="U7C U8A G9C U10C" quantity_name="aptazyme ON/OFF ratio" reported_result=2.31
mutation_id="U8G G9A U10A U11A C13A" quantity_name="aptazyme ON/OFF ratio" reported_result=1.12
mutation_id="U7C U8C G9A U10C U11G C12A C13A" quantity_name="aptazyme ON/OFF ratio" reported_result=1.28
mutation_id="G9U U10C U11C C13G" quantity_name="aptazyme ON/OFF ratio" reported_result=1.06
mutation_id="G9U U10C U11G" quantity_name="aptazyme ON/OFF ratio" reported_result=3.45
mutation_id="U7A U8G G9U U11G C12A C13A" quantity_name="aptazyme ON/OFF ratio" reported_result=1.26
